- Test description: clinical
- Applied conditions: human, in vivo, Cmax
Observable: Cmax
Give your result as the value with the unit written after it.

Task item: Request the reported Cmax associated with C[C@@H](O)[C@H]1C(=O)N2C(C(=O)O)=C(SCCN=CN)C[C@H]12 [IMI, imipenem, reference compound]
Reply: 34400 ng/mL

Task item: Request the reported Cmax associated with `CC1=C[C@@H]2CN(C(=O)N2OS(=O)(=O)O)[C@@H]1C(N)=O`
Reply: 30000 ng/mL

----------
- Test description: Part C single-dose drug-drug interaction plasma PK in healthy subjects
- Applied conditions: human, in vivo, Vss, part C cohort 14, IMI-CIL 0.5 g alone, day 3
Observable: Vd (L)
Answer in L, number only, no unit symbol.

Task item: Request the reported Vd associated with CC1(C)C[C@@H]1C(=O)N/C(=C\CCCCSC[C@H](N)C(=O)O)C(=O)O [CIL, cilastatin]
Reply: 9.6
